Target: Uracil phosphoribosyltransferase (Escherichia coli (strain K12))
Sequence (P0A8F0 whole entry): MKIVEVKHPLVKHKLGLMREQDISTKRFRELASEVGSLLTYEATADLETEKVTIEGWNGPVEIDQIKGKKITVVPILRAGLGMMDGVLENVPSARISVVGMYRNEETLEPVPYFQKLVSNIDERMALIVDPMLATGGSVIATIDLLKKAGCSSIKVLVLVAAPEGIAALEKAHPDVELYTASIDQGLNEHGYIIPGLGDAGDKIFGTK
Assay: Inhibition of Escherichia coli K-12 MTCC 1302 UPRT activity by spectrophotometry
Measurement kind: Ki (µM)
# unit: µM | format: bare number

Field: Ki (Uracil phosphoribosyltransferase (Escherichia coli (strain K12))). Entry: O=c1[nH]cc(F)c(=O)[nH]1
13

# credit: ChEMBL document CHEMBL3044650
